Each item that follows carries a reported pIC50.
System: SW1990;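 further: cell growth inhibition determined with a viability assay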
Test: cells
Type: functional, cell-based
Settings: Homo sapiens
Description: SANGER: Inhibition of human SW1990 cell growth in a cell viability assay.
pIC50: −log10 of the molar value.
endpoint.label: pIC50

                                smiles_repr  result
0  O=S(=O)(O)c1ccc2cc(/N=N/c3cc(S(=O)(=O)O)c4cccnc4c3O)ccc2c1  < 4.80
1  NC(=O)Nc1cc(-c2cccc(F)c2)sc1C(=O)N[C@H]1CCCNC1    6.42
2  O=C(NCCCNc1nc(Nc2cccc(NC(=O)N3CCCC3)c2)ncc1I)c1cccs1  < 5.30

----------
Tested on: TE-5;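 further: inhibition of cell growth, read out by a cell viability assay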
Assay: cells
Assay type: functional, cell-based, Homo sapiens
Conditions: Homo sapiens, TE-5
Description: SANGER: Inhibition of human TE-5 cell growth in a cell viability assay.
pIC50: −log10 of the molar value.

smiles.repr	censor.symbol	pIC50
CN(C)CCOc1ccc(-c2nc(-c3ccncc3)c(-c3ccc4c(c3)CC/C4=N\O)[nH]2)cc1	<	5.30
CCCCCCCCCCCC1=C(O)C(=O)C=C(O)C1=O	=	5.03
CC1(C)CCC(c2ccc(Cl)cc2)=C(CN2CCN(c3ccc(C(=O)NS(=O)(=O)c4ccc(N[C@H](CCN5CCOCC5)CSc5ccccc5)c(S(=O)(=O)C(F)(F)F)c4)cc3)CC2)C1	<	5.70
NC(=O)Nc1cc(-c2cccc(F)c2)sc1C(=O)N[C@H]1CCCNC1	=	5.85

----------
Tested on: NALM-6;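 further: growth inhibition of NALM-6 cells, read out with a cell viability assay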
Experiment: cells
Type: functional, cell-based, Homo sapiens
Settings: Homo sapiens, NALM-6
Description: SANGER: Inhibition of human NALM-6 cell growth in a cell viability assay.
Each item that follows carries a reported IC50.
endpoint.label: IC50

>>> df
                                   compound  endpoint_label      result
0  NC(=O)c1cccc(-c2cc(Nc3ccc(OC(F)(F)F)cc3)ncn2)c1            IC50   > 1280 nM
1  CC(C)C[C@H](NC(=O)[C@H](Cc1ccccc1)NC(=O)c1cnccn1)B(O)O [BORTEZOMIB]            IC50     4.49 nM
2  Cc1cc(N2CCOCC2)cc2[nH]c(-c3c(NC[C@@H](O)c4cccc(Cl)c4)cc[nH]c3=O)nc12            IC50     2970 nM
3  O=S(=O)(O)c1ccc2cc(/N=N/c3cc(S(=O)(=O)O)c4cccnc4c3O)ccc2c1            IC50  > 16000 nM
4  OC[C@H](Cc1ccccc1)Nc1nc(Oc2ccc3c(c2)CCC3)nc2c1ncn2Cc1ccc(-c2ccccc2)cc1            IC50     3510 nM

----------
Test system: YAPC;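 further: growth inhibition of YAPC cells, measured with a cell viability assay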
Assay: cells
Assay type: functional, cell-based
Details: Homo sapiens
Description: SANGER: Inhibition of human YAPC cell growth in a cell viability assay.

smiles.repr	study.target	IC50
CC1(C)CCC(c2ccc(Cl)cc2)=C(CN2CCN(c3ccc(C(=O)NS(=O)(=O)c4ccc(N[C@H](CCN5CCOCC5)CSc5ccccc5)c(S(=O)(=O)C(F)(F)F)c4)cc3)CC2)C1	YAPC	> 2 µM
Cc1ccc(-n2nc(C(C)(C)C)cc2NC(=O)Nc2ccc(OCCN3CCOCC3)c3ccccc23)cc1	YAPC	> 10 µM
OC[C@H](Cc1ccccc1)Nc1nc(Oc2ccc3c(c2)CCC3)nc2c1ncn2Cc1ccc(-c2ccccc2)cc1	YAPC	> 10.2 µM

----------
Each item that follows carries a reported pIC50.
Test system: KS-1
Experiment: cells
Format: functional, cell-based
Details: Homo sapiens
Description: SANGER: Inhibition of human KS-1 cell growth in a cell viability assay.
pIC50: −log10 of the molar value.
endpoint.label: pIC50

In [3]: df
Out[3]:
                                smiles_repr  result
0  Cc1ccc(C(=O)Nc2ccc(CN3CCN(C)CC3)c(C(F)(F)F)c2)cc1C#Cc1cnc2cccnn12  < 6.29
1  C/C(=C\c1csc(C)n1)[C@@H]1C[C@@H]2O[C@]2(C)CCC[C@H](C)[C@H](O)[C@@H](C)C(=O)C(C)(C)[C@@H](O)CC(=O)O1    8.75
2  CN(C)CCOc1ccc(-c2nc(-c3ccncc3)c(-c3ccc4c(c3)CC/C4=N\O)[nH]2)cc1  < 5.30
3  NC(=O)c1ccc(N(C(N)=O)c2c(F)cccc2F)nc1-c1ccc(F)cc1F  < 5.70
4  Cc1cc(N2CCOCC2)cc2[nH]c(-c3c(NC[C@@H](O)c4cccc(Cl)c4)cc[nH]c3=O)nc12    6.99
5  Cc1ccc(-n2nc(C(C)(C)C)cc2NC(=O)Nc2ccc(OCCN3CCOCC3)c3ccccc23)cc1  < 5.00
6  CC1=C(/C=C/C(C)=C/C=C/C(C)=C/C(=O)O)C(C)(C)CCC1  < 5.00

----------
Each item that follows carries a reported IC50.
Tested on: FaDu;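 further: cell viability readout of growth inhibition in FaDu cells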
Test: cells
Assay type: functional, cell-based
Settings: Homo sapiens
Description: SANGER: Inhibition of human FADU cell growth in a cell viability assay.
endpoint.label: IC50 (nM)

>>> print(df.to_string())
                                smiles_repr  endpoint_label  censor_symbol  recorded_number
0  CN(NC(=O)CC(=O)NN(C)C(=S)c1ccccc1)C(=S)c1ccccc1            IC50              =             5.66
1  OC[C@H](Cc1ccccc1)Nc1nc(Oc2ccc3c(c2)CCC3)nc2c1ncn2Cc1ccc(-c2ccccc2)cc1            IC50              >            10200
2  Cc1ccc(C(=O)Nc2ccc(CN3CCN(C)CC3)c(C(F)(F)F)c2)cc1C#Cc1cnc2cccnn12            IC50              >              512
3  CN(C)CCOc1ccc(-c2nc(-c3ccncc3)c(-c3ccc4c(c3)CC/C4=N\O)[nH]2)cc1            IC50              >             5000
4  O=C(NCCCNc1nc(Nc2cccc(NC(=O)N3CCCC3)c2)ncc1I)c1cccs1            IC50              >             5000
5  C/C(=C\c1csc(C)n1)[C@@H]1C[C@@H]2O[C@]2(C)CCC[C@H](C)[C@H](O)[C@@H](C)C(=O)C(C)(C)[C@@H](O)CC(=O)O1            IC50              =             26.2
6  NC(=O)Nc1cc(-c2cccc(F)c2)sc1C(=O)N[C@H]1CCCNC1            IC50              =              412

----------
System: MEG-01
Experiment: cells
Assay type: functional, cell-based, Homo sapiens
Settings: Homo sapiens, MEG-01
Description: SANGER: Inhibition of human MEG-01 cell growth in a cell viability assay.
pIC50: −log10 of the molar value.

smiles.repr	censor.symbol	pIC50
NC(=O)Nc1cc(-c2cccc(F)c2)sc1C(=O)N[C@H]1CCCNC1	=	6.46
Cc1ccc(C(=O)Nc2ccc(CN3CCN(C)CC3)c(C(F)(F)F)c2)cc1C#Cc1cnc2cccnn12	>	8.70
CC1(C)CCC(c2ccc(Cl)cc2)=C(CN2CCN(c3ccc(C(=O)NS(=O)(=O)c4ccc(N[C@H](CCN5CCOCC5)CSc5ccccc5)c(S(=O)(=O)C(F)(F)F)c4)cc3)CC2)C1	=	6.23
NC1(c2ccc(-c3nc4ccn5c(=O)[nH]nc5c4cc3-c3ccccc3)cc2)CCC1	<	5.40
C[C@@H](Oc1cc(-c2cnn(C3CCNCC3)c2)cnc1N)c1c(Cl)ccc(F)c1Cl	=	6.07
CN(NC(=O)CC(=O)NN(C)C(=S)c1ccccc1)C(=S)c1ccccc1	=	6.98
NC(=O)c1cccc(-c2cc(Nc3ccc(OC(F)(F)F)cc3)ncn2)c1	=	6.30

----------
System: EW-18
Assay: cells
Type: functional, cell-based, Homo sapiens
Details: Homo sapiens, EW-18
Description: SANGER: Inhibition of human EW-18 cell growth in a cell viability assay.
endpoint.label: IC50

>>> df
                                smiles_repr     result
0  Cc1ccc(NC(=O)c2ccc(CN3CCN(C)CC3)cc2)cc1Nc1nccc(-c2cccnc2)n1  > 2000 nM

----------
Tested on: SNU-423
Experiment: cells
Format: functional, cell-based
Details: Homo sapiens
Description: SANGER: Inhibition of human SNU-423 cell growth in a cell viability assay.
endpoint.label: IC50

In [3]: df
Out[3]:
                                smiles_repr   result
0  NC1(c2ccc(-c3nc4ccn5c(=O)[nH]nc5c4cc3-c3ccccc3)cc2)CCC1  2.89 µM
1  Cc1ccc(-n2nc(C(C)(C)C)cc2NC(=O)Nc2ccc(OCCN3CCOCC3)c3ccccc23)cc1  > 10 µM
2  CC1=C(/C=C/C(C)=C/C=C/C(C)=C/C(=O)O)C(C)(C)CCC1  > 10 µM
3  COc1ccc(-c2cc3nccn3c(Nc3ncccc3C(N)=O)n2)cc1OC   > 8 µM
4  NC(=O)c1ccc(N(C(N)=O)c2c(F)cccc2F)nc1-c1ccc(F)cc1F   > 2 µM
5  O=C1NC(=O)c2c1c(-c1ccccc1Cl)cc1[nH]c3ccc(O)cc3c21   > 2 µM

----------
Test system: SW780
Assay: cells
Assay type: functional, cell-based
Conditions: Homo sapiens
Description: SANGER: Inhibition of human SW780 cell growth in a cell viability assay.
pIC50: −log10 of the molar value.
endpoint.label: pIC50

>>> print(df.to_string())
                                smiles_repr  study_target  result
0  COC(=O)[C@H](CCSC)NC(=O)c1ccc(NC[C@@H](N)CS)cc1-c1ccccc1         SW780  < 5.99
1  CC1=C(/C=C/C(C)=C/C=C/C(C)=C/C(=O)O)C(C)(C)CCC1         SW780  < 5.00
2  NC(=O)Nc1cc(-c2cccc(F)c2)sc1C(=O)N[C@H]1CCCNC1         SW780    5.92
3  OC[C@H](Cc1ccccc1)Nc1nc(Oc2ccc3c(c2)CCC3)nc2c1ncn2Cc1ccc(-c2ccccc2)cc1         SW780  < 4.99
4         CCCCCCCCCCCC1=C(O)C(=O)C=C(O)C1=O         SW780  < 4.49
5  COc1ccc(-c2cc3nccn3c(Nc3ncccc3C(N)=O)n2)cc1OC         SW780  < 5.10
